Reference for the values: patent US7230116B2

Test: logP determination by HPLC (reversed-phase C18), EEC Directive 79/831 Annex V.A 8
Assay type: physicochemical
Settings: reversed-phase C18 HPLC column; pH 2.3; HPLC reversed-phase column (C 18), 43° C.
Protocol: The logP values given for the Examples (I-2-A-a) were determined in accordance with EEC Directive 79/831 Annex V.A 8 by HPLC (High Performance Liquid Chromatography) using a reversed-phase column (C 18). […]
value.type: chromatographic logP

CCOC(=O)C1(OC(=O)Cn2nc(-c3ccc(Cl)cc3)cc2C)CCC(OC)CC1 (stereo not drawn)	4.11

a: Cc1cc(-c2ccc(Cl)cc2)nn1C1=C(OC(=O)C(C)(C)C)C2(CCCOC2)OC1=O (stereo not drawn)
b: COC1CCC2(CC1)OC(=O)C(n1nc(-c3ccc(Cl)cc3)cc1C)=C2O (stereo not drawn)
Q: Endpoint returns whichever of a and b has the numerically higher chromatographic logP. Selection: enter the item's label.
Result: a
